inhibition at 3 µM listing for selected compounds.
Biological target: CYP2D6 (Homo sapiens)
Sequence (P10635 whole entry): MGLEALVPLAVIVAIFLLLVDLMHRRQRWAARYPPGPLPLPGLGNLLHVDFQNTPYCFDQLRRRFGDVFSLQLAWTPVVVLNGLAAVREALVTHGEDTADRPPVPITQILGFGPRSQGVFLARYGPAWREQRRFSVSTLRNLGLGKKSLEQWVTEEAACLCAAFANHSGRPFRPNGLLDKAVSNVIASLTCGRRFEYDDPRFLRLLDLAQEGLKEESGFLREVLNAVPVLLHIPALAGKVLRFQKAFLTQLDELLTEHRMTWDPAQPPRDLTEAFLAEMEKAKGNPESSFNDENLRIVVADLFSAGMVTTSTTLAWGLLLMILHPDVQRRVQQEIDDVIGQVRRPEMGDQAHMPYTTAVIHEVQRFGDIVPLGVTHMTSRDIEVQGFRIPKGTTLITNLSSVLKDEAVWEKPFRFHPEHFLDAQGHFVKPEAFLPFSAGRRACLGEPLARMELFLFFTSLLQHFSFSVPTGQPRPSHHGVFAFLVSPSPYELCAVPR
Test: Inhibition of CYP2D6 (unknown origin) at 3 uM relative to control
Assay type: ADME
Your answer should be a plain number; it is taken to be in %.

> print(dat)
                                   compound       endpoint.name  observed
1  CCCCc1ccc(NC(=O)C2CC2c2cccnc2)cc1 (configuration not stated)  inhibition at 3 µM         1

Query :: What value of inhibition at 3 µM has been reported for the following compound? O=C(c1cc(-c2cccnc2)[nH]n1)N1CCN(C(c2ccccc2)c2ccccc2)CC1
Result :: 3

----------
Test: Plasma protein binding in human
Assay type: ADME, cell-free
Details: read-out: PPB (converted)
endpoint-name: fraction unbound

> print(dat)
                                   compound     endpoint.name  observed
1  CCCCc1ccc(NC(=O)C2CC2c2cccnc2)cc1 (configuration not stated)  fraction unbound     0.008

Query :: What value of fraction unbound has been reported for the following compound? O=C(c1cc(-c2cccnc2)[nH]n1)N1CCN(C(c2ccccc2)c2ccccc2)CC1
Result :: 0.004

----------
IC50 listing for selected compounds.
Molecular target: Nicotinamide phosphoribosyltransferase (Homo sapiens)
Sequence (P43490 whole entry): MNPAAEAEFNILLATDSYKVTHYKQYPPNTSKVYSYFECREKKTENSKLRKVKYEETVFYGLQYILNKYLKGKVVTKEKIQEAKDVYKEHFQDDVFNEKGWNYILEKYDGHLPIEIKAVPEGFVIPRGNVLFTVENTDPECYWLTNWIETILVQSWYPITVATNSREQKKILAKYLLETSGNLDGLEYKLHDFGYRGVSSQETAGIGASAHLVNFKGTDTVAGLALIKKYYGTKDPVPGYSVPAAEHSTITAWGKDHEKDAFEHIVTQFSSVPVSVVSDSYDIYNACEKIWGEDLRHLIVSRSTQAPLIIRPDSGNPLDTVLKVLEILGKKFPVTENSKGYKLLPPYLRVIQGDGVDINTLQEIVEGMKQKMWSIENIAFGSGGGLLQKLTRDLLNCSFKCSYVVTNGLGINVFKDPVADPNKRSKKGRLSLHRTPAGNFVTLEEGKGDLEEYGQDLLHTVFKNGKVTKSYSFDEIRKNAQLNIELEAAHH
Your answer should be a plain number; it is taken to be in nM.

> print(dat)
                            chemical.string  endpoint.name  observed
1  O=C(COc1ccc(S(=O)(=O)Nc2ccc(Cl)cc2)cc1)NCc1cccnc1           IC50      1900

Query :: What value of IC50 has been reported for the following compound? O=C(c1cc(-c2cccnc2)n[nH]1)N1CCN(C(=O)c2cc3ccccc3[nH]2)CC1
Result :: 3800

Query :: Would you kindly repeat that for O=C(NCc1cccnc1)c1cc2n(n1)CCN(Cc1ccc(Cl)c(Cl)c1)C2=O ?
Result :: 320

----------
Assay: Metabolic stability in human liver microsomes assessed as parent compound remaining at 5 uM measured at 30 mins in absence of NADPH
Assay type: ADME
Details: read-out: Stability
endpoint-name: remaining at 0.5 h, 5 µM
Remember to quote the unit after the number.

> print(dat)
                                   compound  observed
1  CCCCc1ccc(NC(=O)C2CC2c2cccnc2)cc1 (configuration not stated)       96%

With those in mind, consider the next compound.
Query :: What value of remaining at 0.5 h, 5 µM has been reported for the following compound? O=C(c1cc(-c2cccnc2)[nH]n1)N1CCN(C(c2ccccc2)c2ccccc2)CC1
Result :: 104%

----------
inhibition at 3 µM listing for selected molecules.
Target: CYP1A2 (Homo sapiens)
Sequence (P05177 whole entry): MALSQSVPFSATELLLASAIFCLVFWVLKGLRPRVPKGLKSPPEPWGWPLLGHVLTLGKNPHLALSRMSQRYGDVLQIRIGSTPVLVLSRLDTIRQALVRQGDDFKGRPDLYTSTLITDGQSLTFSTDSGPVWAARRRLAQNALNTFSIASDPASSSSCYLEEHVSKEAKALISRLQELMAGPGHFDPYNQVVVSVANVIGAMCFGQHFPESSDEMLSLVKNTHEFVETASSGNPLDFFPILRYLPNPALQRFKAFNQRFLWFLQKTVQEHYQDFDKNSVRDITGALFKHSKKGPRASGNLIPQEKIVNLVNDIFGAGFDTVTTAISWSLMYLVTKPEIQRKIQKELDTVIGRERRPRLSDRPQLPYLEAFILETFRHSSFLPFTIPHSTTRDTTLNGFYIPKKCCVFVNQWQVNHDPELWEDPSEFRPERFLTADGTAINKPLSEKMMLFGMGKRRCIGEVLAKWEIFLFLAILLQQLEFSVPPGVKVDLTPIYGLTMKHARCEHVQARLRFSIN
Test: Inhibition of CYP1A2 (unknown origin) at 3 uM relative to control
Assay type: ADME
Your answer should be a plain number; it is taken to be in %.

> print(dat)
                                   molecule       endpoint.name  uom  observed
1  CCCCc1ccc(NC(=O)C2CC2c2cccnc2)cc1 (configuration not stated)  inhibition at 3 µM    %        22

With those in mind, consider the next molecule.
Query :: What value of inhibition at 3 µM has been reported for the following molecule? O=C(c1cc(-c2cccnc2)[nH]n1)N1CCN(C(c2ccccc2)c2ccccc2)CC1
Result :: 23

----------
pIC50 tested on Nicotinamide phosphoribosyltransferase (Homo sapiens): recorded values
Note on units: pIC50 is unitless, being -log10 of a concentration expressed in mol/L.

Answered cases to consult:
> print(dat)
                            chemical.string  endpoint.name  observed
1  O=C(/C=C/c1cccnc1)Nc1ccc(C(=O)NCC(F)(F)F)cc1          pIC50      6.66
2         O=C(NCCOc1ccc2ccccc2c1)NCc1cccnc1          pIC50      5.30

Query :: What value of pIC50 has been reported for the following molecule? O=C(/C=C/c1cccnc1)Nc1ccc(-c2nnc3n2CCCCC3)cc1
Result :: 6.17

Provenance of the data: ChEMBL document CHEMBL3797081
